Test system: SK-MEL-2 melanoma
method.description: NCI tumour cell line growth inhibition, 48 h
Examples of compounds with documented TGI follow.

>>> reported_result("CC(C)N(CCCNc1c2ccccc2nc2cccc([N+](=O)[O-])c12)C(C)C")
"0.24 µM"
>>> reported_result("C[C@@]12CCC[C@@](C)(C(=O)O)C1CC[C@]13C=C(CO)[C@](O)(CCC12)C3 (stereo partly specified)")
"> 100 µM"
>>> reported_result("COC1=C(C)C(=O)C2C(C1=O)C(c1ccc(OC)c(OC)c1)[C@H]2C (stereo partly specified)")
"> 100 µM"
>>> reported_result("CCCCCCCCCCCCCCCCc1c(C(=O)OC)[nH]c(=S)[nH]c1=O")
"> 50 µM"
>>> reported_result("CN(C)S(=O)(=O)n1ccnc1")
"> 100 µM"
>>> reported_result("NC(=O)c1cccc(N)c1")
"> 100 µM"

Enquiry: Hi! What's the reported TGI for CCN(CC)CC(O)CNc1ccc(NCC(O)CCl)c2c1C(=O)c1ccccc1C2=O (stereo unspecified) on SK-MEL-2 melanoma?
Return: 26.2 µM

Enquiry: Hi! What's the reported TGI for "O=c1oc2ccccc2c(-c2ccc(O)cc2)c1Oc1ccc(Cl)cc1" on SK-MEL-2 melanoma?
Return: 54.2 µM

Enquiry: Hi! What's the reported TGI for "CN(C)C/C=C(/c1ccc(Br)cc1)c1cccnc1" on SK-MEL-2 melanoma?
Return: 37.6 µM

Enquiry: Hi! What's the reported TGI for NC(Cc1cc(Br)c(O)c(Br)c1)C(=O)O (stereo unspecified) on SK-MEL-2 melanoma?
Return: > 100 µM

Enquiry: Hi! What's the reported TGI for "c1ccc2c(c1)nnn1c3cnccc3nc21" on SK-MEL-2 melanoma?
Return: > 100 µM
